- System Under Test: human heparanase (Homo sapiens, UniProt Q9Y251)
- Sequence (Q9Y251 158-543 limits assumed): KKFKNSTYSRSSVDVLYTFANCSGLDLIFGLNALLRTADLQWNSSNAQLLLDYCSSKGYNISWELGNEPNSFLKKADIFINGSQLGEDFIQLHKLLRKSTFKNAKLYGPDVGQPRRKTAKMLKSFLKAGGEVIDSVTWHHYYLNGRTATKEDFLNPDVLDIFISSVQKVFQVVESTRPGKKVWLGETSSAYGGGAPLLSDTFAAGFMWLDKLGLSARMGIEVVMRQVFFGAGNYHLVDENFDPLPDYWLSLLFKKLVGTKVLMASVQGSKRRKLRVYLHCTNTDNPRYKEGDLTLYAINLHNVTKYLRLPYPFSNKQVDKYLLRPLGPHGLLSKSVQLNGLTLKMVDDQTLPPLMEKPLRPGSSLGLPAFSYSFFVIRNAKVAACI
- Sequence (Q9Y251 36-109 limits assumed): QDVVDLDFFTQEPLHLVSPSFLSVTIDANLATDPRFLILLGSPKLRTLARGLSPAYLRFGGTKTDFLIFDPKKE
- Protocol Description: Heparanase inhibition assay (biotinylated heparan sulfate degradation, CBD-FGF binding, avidin-POD detection; modified Genway kit)
- Protocol Conditions: recombinant human heparanase, mean of three readings ± standard error, read-out: IC50 (n=3) against human heparanase

{"Compound": "CCCCOC1CC(O)C(N)CC1CO (centres unmarked)", "Qualifying Sign": ">", "IC50 [µM]": 10000}
{"Compound": "NC1CC(CO)C(OC2OC(CO)C(O)C(O)C2O)CC1O (centres unmarked) [8b]", "Qualifying Sign": "=", "IC50 [µM]": 800}
{"Compound": "NC1CC(CO)C(OC2OC(CO)C(O)C(O)C2O)CC1O (centres unmarked) [8a]", "Qualifying Sign": "=", "IC50 [µM]": 1200}
{"Compound": "NC1CC(CO)C(OC2OC(CO)C(O)C(O)C2O)CC1O (centres unmarked) [8c]", "Qualifying Sign": ">", "IC50 [µM]": 10000}
{"Compound": "NC1CC(CO)C(OC2OC(CO)C(O)C(O)C2O)CC1O (centres unmarked) [8d]", "Qualifying Sign": "=", "IC50 [µM]": 800}
